Test system: Trica-SKR2
Experiment description: Aequorin-luminescence assay, CHO-WTA11 cells (Gα16) transfected with Trica-SKR2
Format: cell-based, Tribolium castaneum
Experimental setup: aequorin bioluminescence, 1 fM to 1 μM, three independent measurements in duplicate
Measure name: pEC50
Scale: pEC50 equals -log10([C]), with [C] in mol/L.

input: Any idea what its pEC50 is? The substance is pQLASDDY(SO3H)GHMRFa [sLocmi-SK, sulfated SK from the migratory locust, Locusta migratoria]
output: 6.11

###

Test system: Trica-SKR1
Experiment description: Aequorin-luminescence assay, CHO-WTA11 cells (Gα16) transfected with Trica-SKR1
Type: cell-based, Tribolium castaneum
Experimental setup: peptide at 1 μM, aequorin bioluminescence, relative to sTrica-SK(5–13) at 1 μM = 100%, at least three biological repeats, each in duplicate
Measure name: % Trica-SKR1 (relative activation)
Be sure to follow the number with its unit.

# example entries with known answers
FDDYGHMRFa [nsTrica-SK(5–13)] :: 29.9%
DDYGHMRFa [2009[φ1]wp-1, truncated nonsulfated SK analog] :: 27.2%
FDDAGHMRFa [2008[φ1]wp-2, alanine scan analog of nsTrica-SK, tyrosine replaced] :: 10.1%
DYGHMRFa [2010[φ1]wp-1, truncated nonsulfated SK analog] :: 7.6%
pQLASDDY(SO3H)GHMRFa [sLocmi-SK, sulfated SK from the migratory locust, Locusta migratoria] :: 75.0%

input: Any idea what its % Trica-SKR1 (relative activation) is? The substance is FDDYAHMRFa [2007[φ1]wp-1, alanine scan analog of nsTrica-SK, glycine replaced]
output: 30.6%

input: Any idea what its % Trica-SKR1 (relative activation) is? The substance is SPVDY(SO3H)DRPIMAFa [1567[φ1]wp-5, sulfated neuropeptide derived from C. elegans nlp-13]
output: 23.6%

input: Any idea what its % Trica-SKR1 (relative activation) is? The substance is FDDYGHARFa [2005[φ1]wp-3, alanine scan analog of nsTrica-SK]
output: 5.1%

input: Any idea what its % Trica-SKR1 (relative activation) is? The substance is FDDYGAMRFa [2006[φ1]wp-1, alanine scan analog of nsTrica-SK]
output: 2.3%

input: Any idea what its % Trica-SKR1 (relative activation) is? The substance is SPVDYDRPIMAFa [1432-2[φ]wp-6, peptide derived from C. elegans nlp-13]
output: 16.4%

input: Any idea what its % Trica-SKR1 (relative activation) is? The substance is pQPSY(SO3H)DRDIMSFa [1679[φ1]wp-4, sulfated neuropeptide derived from C. elegans nlp-13]
output: 16.5%

input: Any idea what its % Trica-SKR1 (relative activation) is? The substance is YGHMRFa [2011[φ1]wp-1, truncated nonsulfated SK analog]
output: 26.3%

input: Any idea what its % Trica-SKR1 (relative activation) is? The substance is pQLASDDYGHMRFa [nsLocmi-SK, nonsulfated Locusta migratoria SK]
output: 22.2%

###

Tested on: Trica-SKR1
Experiment description: Aequorin-luminescence assay, CHO-WTA11 cells (Gα16) transfected with Trica-SKR1
Type: cell-based, Tribolium castaneum
Experimental setup: peptide at 1 μM, aequorin bioluminescence, relative to sTrica-SK(5–13) at 1 μM = 100%, at least three biological repeats, each in duplicate
In this section, each of the substances is paired with its reported % Trica-SKR1 (relative activation).
Express it in %; write the number only.

# example entries with known answers
FDDYGHMRAa [2003[φ1]wp-2, alanine scan analog of nsTrica-SK] :: 8.2
FDDYGHMRa [2076[φ1]wp-2] :: 25.8
PVDY(SO3H)DRPIMAFa [1569[φ2]wp-4, sulfated neuropeptide derived from C. elegans nlp-13] :: 6.2

input: Any idea what its % Trica-SKR1 (relative activation) is? The substance is FDDYGHMAFa [2004[φ1]wp-1, alanine scan analog of nsTrica-SK]
output: 5.9
